B1: Neutrophil cytosol factor 2, residues 456 to 514; numbered along this chain, P19878 (parent)
chain: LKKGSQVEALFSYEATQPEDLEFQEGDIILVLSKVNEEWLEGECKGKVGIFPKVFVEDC

variants of: B1; experiment: abundance fitness (aPCA) (normalised: wild type 0, dead -1); higher = more abundant; growth selection in yeast, the domain comes from the species named; settings: Homo sapiens
I'd be grateful if you could share measured abundance fitness for these entries.
Answers are plain numbers.

For every record below, what is its abundance fitness?
1. LKKGSQVEALFSYEATQPEDLEFQEGDIILVSSKVNEEWLEGECKGKVGIFPKVFVEDC
2. LKKGSQVEALFSYEATQPEDLEFQEGDIILVLSKVNEEWLEGECKGKVGIFLKVFVEDC
3. LKKGSQVEALFSYEATQPEYLEFQEGDIILVLSKVNEEWLEGECKGKVGIFPKVFVEDC
4. LKKGSIVEALFSYEATQPEDLEFQEGDIILVLSKVNEEWLEGECKGKVGIFPKVFVEDC
5. LKKGSQVEALFSYEATQPEDLEFQESDIILVLSKVNEEWLEGECKGKVGIFPKVFVEDC

1: -0.069; 2: -0.094; 3: 0.142; 4: -0.133; 5: -0.457

For every record below, what is its abundance fitness?
1. LKKGSQVEALFSYEATQPEDLEFQEGDIILVLSKVNEYWLEGECKGKVGIFPKVFVEDC
2. LKKGSQVLALFSYEATQPEDLEFQEGDIILVLSKVNEEWLEGECKGKVGIFPKVFVEDC
3. LKKGSQVEALFSYEANQPEDLEFQEGDIILVLSKVNEEWLEGECKGKVGIFPKVFVEDC

1: -0.266; 2: 0.433; 3: -0.304

For every record below, what is its abundance fitness?
1. LKKGSQVEALFSYEATQPEDLEFQEGDIILVLSPVNEEWLEGECKGKVGIFPKVFVEDC
2. LKKGSQVEALFSYEATQPEDLEFQEGDIILVLSKVNEEWLEGECKGKVGINPKVFVEDC
3. LKKGSQVEALFSYEATQPEDLEFQEGDIILVLSKVNEEWLEGECKGKVTIFPKVFVEDC
4. LKKGSQVEALFSYEATQPEDLEFQEGDIILVLSKVNEEWLEGECKGKVGIFPKVFAEDC
5. LKKGYQVEALFSYEATQPEDLEFQEGDIILVLSKVNEEWLEGECKGKVGIFPKVFVEDC
6. LKKGSQVEALFSYEATQPEDLEPQEGDIILVLSKVNEEWLEGECKGKVGIFPKVFVEDC
7. LKKGSQVEALFSYEATQPEDLEFQEGDIILVLSKHNEEWLEGECKGKVGIFPKVFVEDC

-0.853
-0.584
-0.951
-0.719
0.219
-0.848
-0.806

For every record below, what is its abundance fitness?
1. LKKGSQVEFLFSYEATQPEDLEFQEGDIILVLSKVNEEWLEGECKGKVGIFPKVFVEDC
2. LKKGSQVKALFSYEATQPEDLEFQEGDIILVLSKVNEEWLEGECKGKVGIFPKVFVEDC
3. LKKGSQVEALFSYEATQPEDLEFQEGDIILVLTKVNEEWLEGECKGKVGIFPKVFVEDC
4. LKKGSQVEALFSYEATQPEDLEFQEGDIILVLSKVNEEHLEGECKGKVGIFPKVFVEDC
5. LKSGSQVEALFSYEATQPEDLEFQEGDIILVLSKVNEEWLEGECKGKVGIFPKVFVEDC

1: -0.2; 2: 1.17; 3: -0.289; 4: -1.03; 5: -0.474

For every record below, what is its abundance fitness?
1. LKKGSQVEALFSYEATQPEDLEFQEGDIILHLSKVNEEWLEGECKGKVGIFPKVFVEDC
2. LKKGSQVEALFSYERTQPEDLEFQEGDIILVLSKVNEEWLEGECKGKVGIFPKVFVEDC
3. LKKGSQVEALFSYEATQPEDLEFQEGDIILVRSKVNEEWLEGECKGKVGIFPKVFVEDC
4. LKKGSQVEALFSYEATQPEDLIFQEGDIILVLSKVNEEWLEGECKGKVGIFPKVFVEDC

[-0.369, -0.417, 0.564, -0.795]

For every record below, what is its abundance fitness?
1. LKKGSQVEALFSYEATQPEDVEFQEGDIILVLSKVNEEWLEGECKGKVGIFPKVFVEDC
2. LKKGSQVEALFSYEATQPEDLEFQEGDIILVLSKVNEEWLEGECKGKVGKFPKVFVEDC

[-0.225, 0.108]

For every record below, what is its abundance fitness?
1. LKKGSQVEALFSYEATQPEDLEFQEGDIILVLSKVNEEWLEGECVGKVGIFPKVFVEDC
2. LKKGSQVEALKSYEATQPEDLEFQEGDIILVLSKVNEEWLEGECKGKVGIFPKVFVEDC
3. LKKGIQVEALFSYEATQPEDLEFQEGDIILVLSKVNEEWLEGECKGKVGIFPKVFVEDC
4. LKKGSQVEALFSYEATQPEDLEFQEGDIILVLSKVNEEWVEGECKGKVGIFPKVFVEDC
5. LKKGSQVEALFSYEATQPEDLEFQEGDIILVLSKVNEEWLEGECKGKVGIFPKVFVIDC
6. SKKGSQVEALFSYEATQPEDLEFQEGDIILVLSKVNEEWLEGECKGKVGIFPKVFVEDC
7. LKKGSQVEALFSYEATQPEDLEFQEGDIILVLSKVNEEWLEGECKSKVGIFPKVFVEDC

[-0.734, 0.153, -0.299, -0.451, -0.697, -0.217, -0.928]

For every record below, what is its abundance fitness?
1. LKKGSQVEALFSYEATQPEDLEFQEGDIILVLSKVNEEWLEGECKGKVGRFPKVFVEDC
2. LKKGSQVEALFSYESTQPEDLEFQEGDIILVLSKVNEEWLEGECKGKVGIFPKVFVEDC

1: -0.125; 2: 0.051
